# test-target: T1, mouse α4β7 integrin on TK1 cells (mouse, UniProt Q00651 41-1039; P26011 20-806)
# T1 construct: whole, on cells; also called α4β7 cell (Mu); Cell Adhesion α4β7 Mouse
# T1 sequence (Q00651 41-1039, chain 1 of 2): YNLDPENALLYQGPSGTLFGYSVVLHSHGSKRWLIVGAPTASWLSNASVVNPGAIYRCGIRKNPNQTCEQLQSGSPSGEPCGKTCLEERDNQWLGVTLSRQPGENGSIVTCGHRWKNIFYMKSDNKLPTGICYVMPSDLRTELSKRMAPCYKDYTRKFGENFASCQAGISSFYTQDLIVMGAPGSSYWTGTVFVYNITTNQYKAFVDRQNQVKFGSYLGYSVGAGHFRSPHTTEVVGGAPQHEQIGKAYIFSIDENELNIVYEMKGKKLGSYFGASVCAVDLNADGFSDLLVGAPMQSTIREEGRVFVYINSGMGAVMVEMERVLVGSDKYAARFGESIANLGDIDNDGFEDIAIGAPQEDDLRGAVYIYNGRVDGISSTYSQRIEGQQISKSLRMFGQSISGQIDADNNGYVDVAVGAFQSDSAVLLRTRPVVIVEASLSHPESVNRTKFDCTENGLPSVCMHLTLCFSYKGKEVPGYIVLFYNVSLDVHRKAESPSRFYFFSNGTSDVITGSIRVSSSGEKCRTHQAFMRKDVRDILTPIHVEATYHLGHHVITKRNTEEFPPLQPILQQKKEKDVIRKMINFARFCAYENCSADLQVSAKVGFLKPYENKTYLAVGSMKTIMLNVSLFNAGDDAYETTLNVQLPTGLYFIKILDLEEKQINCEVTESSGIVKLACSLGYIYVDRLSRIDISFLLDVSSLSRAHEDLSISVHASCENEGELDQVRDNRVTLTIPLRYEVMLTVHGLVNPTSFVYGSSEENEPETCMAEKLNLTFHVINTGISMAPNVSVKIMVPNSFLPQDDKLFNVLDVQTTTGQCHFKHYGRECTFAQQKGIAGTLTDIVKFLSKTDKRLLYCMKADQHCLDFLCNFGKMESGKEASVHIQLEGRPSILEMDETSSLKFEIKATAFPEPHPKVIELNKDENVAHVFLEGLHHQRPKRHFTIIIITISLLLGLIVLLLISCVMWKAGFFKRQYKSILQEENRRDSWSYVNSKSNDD
# T1 sequence (P26011 20-806, chain 2 of 2): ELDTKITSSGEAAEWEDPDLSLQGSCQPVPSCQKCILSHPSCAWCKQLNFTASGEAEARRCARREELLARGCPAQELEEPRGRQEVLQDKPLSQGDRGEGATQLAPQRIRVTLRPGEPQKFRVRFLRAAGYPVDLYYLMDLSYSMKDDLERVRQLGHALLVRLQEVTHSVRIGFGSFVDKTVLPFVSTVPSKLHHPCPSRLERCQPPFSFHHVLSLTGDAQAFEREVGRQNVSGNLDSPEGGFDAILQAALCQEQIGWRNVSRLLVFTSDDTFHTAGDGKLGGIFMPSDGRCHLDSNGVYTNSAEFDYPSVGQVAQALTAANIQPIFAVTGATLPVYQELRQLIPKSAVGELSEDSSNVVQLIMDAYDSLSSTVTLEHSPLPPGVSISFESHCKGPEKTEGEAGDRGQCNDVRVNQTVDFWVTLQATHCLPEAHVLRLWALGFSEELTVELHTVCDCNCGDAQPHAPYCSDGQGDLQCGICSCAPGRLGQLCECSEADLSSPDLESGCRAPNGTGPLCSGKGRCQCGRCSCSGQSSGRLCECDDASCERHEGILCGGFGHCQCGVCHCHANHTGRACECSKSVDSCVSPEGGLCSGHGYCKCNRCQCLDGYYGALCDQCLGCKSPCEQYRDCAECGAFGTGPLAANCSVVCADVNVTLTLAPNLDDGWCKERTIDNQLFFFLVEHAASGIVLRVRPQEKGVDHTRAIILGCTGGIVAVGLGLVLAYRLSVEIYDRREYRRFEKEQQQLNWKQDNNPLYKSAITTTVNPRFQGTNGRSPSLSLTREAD
# experiment-notes: TK1 cell adhesion to MAdCAM-1
Numbered stars: 1 amine (or outer) side, 2 acyl side, 3 side chain; on linkers, the order of the positions; unused ones are H or OH. Bridge positions count the residues as written; N and C are the ends. Square brackets hold non-standard residues; d marks the D form. Glu(OMe) = L-glutamic acid gamma-methyl ester, COC(=O)CC[C@H](N[*:1])C(=O)[*:2]; NMeR = CN[C@@H](CCCNC(=N)N)C(=O)O; Pen = CC(C)(S)[C@H](N)C(=O)O
measure-name: IC50

Here's what some known entries look like.
Ac-[Pen][NMeR]SDTL[Pen]W[dE][dK]-NH2 (disulfide 1-7; not fully specified (residue 10); printed as (Ac Pen N-Me-R S D T L Pen W e k NH2)2 DIG, disulfide Pen-Pen; also: homodimer via DIG linker) [SEQ ID NO: 68] ... ≤ 10 nM
Ac-[Pen][NMeR]SDTL[Pen]WE[dK]-OH (disulfide 1-7; not fully specified (residue 10); printed as (Ac Pen N-Me-R S D T L Pen W E k OH)2 DIG, disulfide Pen-Pen; also: homodimer: two subunits linked by DIG via D-Lys10 side chain) [SEQ ID NO: 78] ... ≤ 10 nM

Consider the additional binder presented here.
Query :: Reported IC50 for Ac-[Pen][NMeR]SDTL[Pen]W[Glu(OMe)][dK]-NH2 (disulfide 1-7; not fully specified (residue 10); printed as (Ac Pen N-Me-R S D T L Pen W E(OMe) k NH2)2 DIG, disulfide Pen-Pen; also: homodimer: two subunits linked by DIG via D-Lys10 side chain) [SEQ ID NO: 86] : what is it?
Result :: ≤ 10 nM
